targetDesc: GluN1b wt/ GluN2B E236A (Rattus norvegicus, UniProt P35439+Q00960, E236A)
Sequence (Q00960 27-1482 E236A, other chains not shown): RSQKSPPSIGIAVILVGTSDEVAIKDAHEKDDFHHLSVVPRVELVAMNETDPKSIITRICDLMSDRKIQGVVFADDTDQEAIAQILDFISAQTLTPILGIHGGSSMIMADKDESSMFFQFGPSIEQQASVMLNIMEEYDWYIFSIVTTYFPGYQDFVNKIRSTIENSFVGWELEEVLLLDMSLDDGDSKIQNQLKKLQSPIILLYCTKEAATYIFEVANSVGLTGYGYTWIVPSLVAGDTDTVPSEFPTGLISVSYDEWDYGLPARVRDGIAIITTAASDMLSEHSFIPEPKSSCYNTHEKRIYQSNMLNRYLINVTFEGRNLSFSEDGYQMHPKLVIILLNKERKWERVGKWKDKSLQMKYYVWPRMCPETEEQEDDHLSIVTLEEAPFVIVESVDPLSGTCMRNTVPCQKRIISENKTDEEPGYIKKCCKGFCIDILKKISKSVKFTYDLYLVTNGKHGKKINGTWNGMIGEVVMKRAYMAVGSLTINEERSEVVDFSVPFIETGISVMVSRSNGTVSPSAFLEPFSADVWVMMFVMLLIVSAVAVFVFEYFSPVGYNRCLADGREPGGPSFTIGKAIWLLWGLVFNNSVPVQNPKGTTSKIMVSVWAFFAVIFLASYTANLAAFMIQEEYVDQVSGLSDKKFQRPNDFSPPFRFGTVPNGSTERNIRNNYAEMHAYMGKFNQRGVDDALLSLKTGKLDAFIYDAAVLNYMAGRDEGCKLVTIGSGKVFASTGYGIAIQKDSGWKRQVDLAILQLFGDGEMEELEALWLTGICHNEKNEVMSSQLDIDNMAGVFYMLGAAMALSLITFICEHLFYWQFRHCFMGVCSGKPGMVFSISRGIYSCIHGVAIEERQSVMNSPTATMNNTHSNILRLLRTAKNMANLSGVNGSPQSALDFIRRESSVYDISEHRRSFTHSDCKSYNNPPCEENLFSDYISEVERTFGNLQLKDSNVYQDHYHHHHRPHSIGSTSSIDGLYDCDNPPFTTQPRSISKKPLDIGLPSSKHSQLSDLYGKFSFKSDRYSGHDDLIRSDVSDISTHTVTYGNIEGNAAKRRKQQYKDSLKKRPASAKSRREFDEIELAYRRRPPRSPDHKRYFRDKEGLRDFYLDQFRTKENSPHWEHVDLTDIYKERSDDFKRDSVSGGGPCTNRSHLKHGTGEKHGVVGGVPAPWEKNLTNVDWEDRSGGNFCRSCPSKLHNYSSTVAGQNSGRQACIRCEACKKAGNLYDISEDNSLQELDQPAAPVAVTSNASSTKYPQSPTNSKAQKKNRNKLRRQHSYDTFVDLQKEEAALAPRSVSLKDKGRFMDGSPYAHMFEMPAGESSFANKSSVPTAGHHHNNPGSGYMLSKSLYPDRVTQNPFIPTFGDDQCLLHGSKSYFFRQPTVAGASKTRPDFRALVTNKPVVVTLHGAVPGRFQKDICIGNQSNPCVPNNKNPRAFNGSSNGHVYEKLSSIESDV
protocolSummary: TEVC recording in X. laevis oocytes, GluN2B mutant screening
experimentalConditions: agonists 10 µM glycine + 10 µM (S)-glutamate; fitted curve
assayEndpoint: pIC50
Recall that pIC50 is obtained by taking minus log10 of the concentration measured in molar.

Item Oc1ccc2c(c1)CCN(CCCCc1ccccc1F)C[C@@H]2O [(R)-OF-NB1] with GluN1b wt/ GluN2B E236A (Rattus norvegicus, UniProt P35439+Q00960, E236A) - pIC50?
5.50

---

targetDesc: GluN1a wt/ GluN2B F194A (Rattus norvegicus, UniProt P35439+Q00960, F194A)
Sequence (Q00960 27-1482 F194A, other chains not shown): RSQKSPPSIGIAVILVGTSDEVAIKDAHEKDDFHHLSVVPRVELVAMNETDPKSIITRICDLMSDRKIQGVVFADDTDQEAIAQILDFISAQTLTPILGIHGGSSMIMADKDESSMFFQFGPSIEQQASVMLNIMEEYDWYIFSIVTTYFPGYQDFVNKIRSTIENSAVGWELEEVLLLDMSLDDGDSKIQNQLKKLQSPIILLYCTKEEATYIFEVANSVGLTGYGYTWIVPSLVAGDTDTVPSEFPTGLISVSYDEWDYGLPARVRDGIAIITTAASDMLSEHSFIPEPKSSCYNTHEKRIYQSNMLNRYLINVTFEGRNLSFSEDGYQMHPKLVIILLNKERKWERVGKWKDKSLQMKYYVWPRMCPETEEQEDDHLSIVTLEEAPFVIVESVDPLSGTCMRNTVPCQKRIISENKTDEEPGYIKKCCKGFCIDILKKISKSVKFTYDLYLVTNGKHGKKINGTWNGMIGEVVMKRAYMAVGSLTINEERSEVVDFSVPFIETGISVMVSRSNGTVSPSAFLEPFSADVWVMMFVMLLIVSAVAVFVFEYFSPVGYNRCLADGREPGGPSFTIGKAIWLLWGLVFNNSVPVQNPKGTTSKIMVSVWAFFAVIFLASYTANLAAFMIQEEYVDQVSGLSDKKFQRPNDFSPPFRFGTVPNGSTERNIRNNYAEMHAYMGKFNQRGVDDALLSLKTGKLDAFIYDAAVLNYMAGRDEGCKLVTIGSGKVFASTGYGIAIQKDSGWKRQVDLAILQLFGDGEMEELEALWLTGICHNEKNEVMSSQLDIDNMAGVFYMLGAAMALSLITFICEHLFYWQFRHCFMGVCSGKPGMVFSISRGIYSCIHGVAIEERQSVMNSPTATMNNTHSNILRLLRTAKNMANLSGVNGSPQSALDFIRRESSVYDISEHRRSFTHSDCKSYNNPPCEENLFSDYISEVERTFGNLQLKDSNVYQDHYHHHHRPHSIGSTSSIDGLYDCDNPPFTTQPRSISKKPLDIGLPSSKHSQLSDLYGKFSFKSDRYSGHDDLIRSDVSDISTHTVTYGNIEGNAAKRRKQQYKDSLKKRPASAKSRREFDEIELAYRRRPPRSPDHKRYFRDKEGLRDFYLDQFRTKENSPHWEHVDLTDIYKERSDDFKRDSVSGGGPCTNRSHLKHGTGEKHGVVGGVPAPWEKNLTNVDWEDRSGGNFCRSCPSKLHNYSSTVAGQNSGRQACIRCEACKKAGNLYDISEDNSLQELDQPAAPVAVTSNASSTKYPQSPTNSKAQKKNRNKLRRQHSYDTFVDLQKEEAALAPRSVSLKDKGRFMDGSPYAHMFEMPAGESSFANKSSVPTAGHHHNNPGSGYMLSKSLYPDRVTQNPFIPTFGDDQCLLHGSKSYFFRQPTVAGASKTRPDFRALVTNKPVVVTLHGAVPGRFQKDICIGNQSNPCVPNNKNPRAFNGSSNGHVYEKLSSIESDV
protocolSummary: TEVC recording in X. laevis oocytes, GluN2B mutant screening
experimentalConditions: agonists 10 µM glycine + 10 µM (S)-glutamate; fitted curve
assayEndpoint: pIC50
# reply with the number alone; pIC50 is -log10 of concentration in mol/L

Entry under review: Oc1ccc2c(c1)CCN(CCCCc1ccccc1F)C[C@@H]2O [(R)-OF-NB1] . Reported pIC50?
4.78

---

protocolSummary: Solubility limit in TEVC compound solution
Assay type: physicochemical
experimentalConditions: higher concentrations could not be tested in TEVC
assayEndpoint: solubility (µM)
Kindly answer with a numeric value in µM, unit omitted.

Could you share which solubility value was measured for Oc1ccc2c(c1)CCN(CCCCc1ccccc1F)C[C@@H]2O [(R)-OF-NB1] ?
30

---

targetDesc: GluN1a wt/ GluN2B E236A (Rattus norvegicus, UniProt P35439+Q00960, E236A)
protocolSummary: TEVC recording in X. laevis oocytes, GluN2B mutant screening
experimentalConditions: agonists 10 µM glycine + 10 µM (S)-glutamate; fitted curve
assayEndpoint: IC50 (nM)
Report the value in nM with no unit label.

Look at this compound and give its reported IC50. Oc1ccc2c(c1)CCN(CCCCc1ccccc1F)C[C@@H]2O [(R)-OF-NB1]
232

---

targetDesc: GluN1b wt/ GluN2B N192A (Rattus norvegicus, UniProt P35439+Q00960, N192A)
protocolSummary: TEVC recording in X. laevis oocytes, GluN2B mutant screening
experimentalConditions: agonists 10 µM glycine + 10 µM (S)-glutamate; fitted curve
assayEndpoint: pIC50
Note: pIC50 values are expressed as the negative base-10 logarithm of concentration in M.

Suppose we examine the compound Oc1ccc2c(c1)CCN(CCCCc1ccccc1F)C[C@@H]2O [(R)-OF-NB1] ; what pIC50 value has been reported?
6.25

---

targetDesc: GluN1b wt/ GluN2B wt (Rattus norvegicus, UniProt P35439+Q00960)
Sequence (Q00960 27-1482, other chains not shown): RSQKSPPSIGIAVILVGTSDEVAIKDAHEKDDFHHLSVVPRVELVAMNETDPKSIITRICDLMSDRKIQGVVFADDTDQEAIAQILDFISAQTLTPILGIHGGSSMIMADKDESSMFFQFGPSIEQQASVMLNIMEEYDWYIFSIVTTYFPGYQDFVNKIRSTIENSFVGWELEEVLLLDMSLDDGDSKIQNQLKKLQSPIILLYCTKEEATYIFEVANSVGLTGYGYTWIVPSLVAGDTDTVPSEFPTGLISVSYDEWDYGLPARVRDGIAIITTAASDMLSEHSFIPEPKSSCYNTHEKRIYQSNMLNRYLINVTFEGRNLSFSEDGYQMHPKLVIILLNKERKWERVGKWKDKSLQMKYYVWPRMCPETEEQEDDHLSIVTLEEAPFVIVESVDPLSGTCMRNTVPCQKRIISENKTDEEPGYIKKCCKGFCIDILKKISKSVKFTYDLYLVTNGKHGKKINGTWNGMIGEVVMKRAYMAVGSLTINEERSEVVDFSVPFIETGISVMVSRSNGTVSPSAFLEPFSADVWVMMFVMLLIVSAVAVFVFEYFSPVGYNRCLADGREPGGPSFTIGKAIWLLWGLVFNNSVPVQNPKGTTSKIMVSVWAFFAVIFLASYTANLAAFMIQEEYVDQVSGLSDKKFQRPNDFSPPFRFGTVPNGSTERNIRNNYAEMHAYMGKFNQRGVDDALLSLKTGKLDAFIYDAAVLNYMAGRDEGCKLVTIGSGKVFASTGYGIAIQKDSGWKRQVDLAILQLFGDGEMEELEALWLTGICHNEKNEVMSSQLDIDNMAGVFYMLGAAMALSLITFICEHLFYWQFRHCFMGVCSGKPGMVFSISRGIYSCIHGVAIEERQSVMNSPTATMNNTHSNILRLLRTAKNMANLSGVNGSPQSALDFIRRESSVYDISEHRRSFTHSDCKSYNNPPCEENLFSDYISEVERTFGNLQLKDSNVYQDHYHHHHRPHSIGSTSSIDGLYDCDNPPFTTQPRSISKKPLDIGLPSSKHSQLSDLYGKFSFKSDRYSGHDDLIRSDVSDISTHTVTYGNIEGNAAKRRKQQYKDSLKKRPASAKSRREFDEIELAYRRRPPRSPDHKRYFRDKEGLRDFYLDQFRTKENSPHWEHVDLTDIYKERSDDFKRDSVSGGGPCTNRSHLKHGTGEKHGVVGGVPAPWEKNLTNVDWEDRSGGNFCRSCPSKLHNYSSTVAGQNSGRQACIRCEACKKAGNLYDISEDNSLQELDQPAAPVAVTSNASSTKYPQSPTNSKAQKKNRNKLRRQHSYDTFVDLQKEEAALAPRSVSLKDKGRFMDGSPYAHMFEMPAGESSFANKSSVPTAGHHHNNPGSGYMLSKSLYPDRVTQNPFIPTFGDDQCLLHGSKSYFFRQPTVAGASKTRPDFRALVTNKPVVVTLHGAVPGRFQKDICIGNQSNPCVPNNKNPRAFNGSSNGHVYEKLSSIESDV
protocolSummary: TEVC recording of NMDAR currents in X. laevis oocytes, inhibition by compound
Assay type: cell-based
experimentalConditions: oocytes, 10 µM glycine + 10 µM (S)-glutamate, -70 mV; fitted curve
assayEndpoint: pIC50
// scale note: pIC50 = -log10(conc_M); give the bare number

// pIC50 lookup, key: Oc1ccc2c(c1)CCN(CCCCc1ccccc1F)C[C@@H]2O [(R)-OF-NB1]
6.17

---

targetDesc: GluN1b wt/ GluN2B F194A (Rattus norvegicus, UniProt P35439+Q00960, F194A)
protocolSummary: TEVC recording in X. laevis oocytes, GluN2B mutant screening
experimentalConditions: agonists 10 µM glycine + 10 µM (S)-glutamate; fitted curve
assayEndpoint: IC50 (µM)
# number only, unit µM dropped from output

Would you kindly share the measured IC50 for Oc1ccc2c(c1)CCN(CCCCc1ccccc1F)C[C@@H]2O [(R)-OF-NB1] ?
3.84
